Data credit: PubChem BioAssay (NCI)

- Tested on: HS 578T breast
- experimentNotes: NCI tumour cell line growth inhibition, 48 h
Where a SMILES comes first, the peptide text is derived from it. [ ]: non-standard residue; d: D form. Ac5c = NC1(C(=O)O)CCCC1
measureName: TGI

Return reported TGI; argument: Cc1ccc2c(=O)cc(-c3cccc(Cl)c3)[nH]c2n1
> 100 µM

For the molecule NCC(=O)NC1(C(=O)O)CCCC1 (H-Gly-[Ac5c]-OH) , what TGI is on record?
> 100 µM

Can you share its TGI? I mean this molecule: Clc1ccc(C(c2ccc(Cl)cc2)c2cncnc2)cc1
39.9 µM

Suppose we examine the molecule O=CC(NC(=O)N(CCCl)N=O)C(O)C(O)C(O)CO (stereo not given) ; what TGI value has been reported?
> 1250 µM

So what's the measured TGI for this one? CN(C)c1ccc(O)c2c1CC1CC3C(N(C)C)C(=O)C(C(N)=O)=C(O)C3(O)C(=O)C1=C2O (stereo not given)
59.4 µM

Look at this molecule and give its reported TGI. Fc1cc(-c2cc(-c3ccccc3)n[nH]2)c(Cl)cc1Cl
> 100 µM

Could you tell me which TGI is on file for Brc1sc(Br)c2c1[C@H](Br)C[C@@H]2Br ?
77.1 µM

Field request: TGI | item: C=C1C(=O)O[C@H]2[C@H]1CC/C(COC(=O)NCc1ccc(Cn3c(=O)sn(CCI)c3=O)cc1)=C\CC[C@@]1(C)O[C@@H]21
42.4 µM

TGI for O=C(NC1CCCCC1)NS(=O)(=O)c1ccc(-n2nc3c(c2-c2cccs2)Cc2ccccc2-3)cc1 ?
> 100 µM

Consider the molecule shown here: CC1CN=C(N(C)C(=O)Nc2ccc(Cl)cc2)S1 (stereo not given) What is its recorded TGI?
> 100 µM

---

- Test system: SR leukemia
- experimentNotes: NCI tumour cell line growth inhibition, 48 h
Where a SMILES comes first, the peptide text is derived from it. The star is where a group is joined. CH2Cl = ClC*
Provide the reported TGI of each item.

Could you share which TGI value was measured for COC(=O)C(Cc1nc2ccc(Cl)cc2[nH]c1=O)/C(=N/O)C(=O)Nc1cccc(Cl)c1C (stereo not given) ?
> 100 µM

# input molecule: CC(=O)NC(C)(C)C1CC=C(C)/C(=N\O)C1 (stereo not given) ; wanted: its TGI
> 100 µM

For the molecule shown here, N#Cc1ccsc1Nc1ccccc1[N+](=O)[O-] , give the reported TGI.
> 100 µM

Can you share its TGI? I mean this molecule: CC(=O)NC(CC(C)C)C(=O)NC(Cc1ccccc1)C(=O)CCl (stereo not drawn) (Ac-Leu-Phe-CH2Cl; configuration not given here)
> 21.8 µM

Fill in: TGI of CN(C)c1ccc(O)c2c1CC1CC3C(N(C)C)C(=O)C(C(N)=O)=C(O)C3(O)C(=O)C1=C2O (stereo not given) is ___
> 100 µM

---

- Tested on: COLO 205 colon
- experimentNotes: NCI tumour cell line growth inhibition, 48 h
Field: log10 of TGI. Provide a value for each of the molecules that follow.
On a log10 scale: recorded TGI, unit µM.

State the recorded log10 of TGI for this entry: CCCCCCCCCCCCCCCCNC(=O)OC(C)C
0.56

Sample CC(C)(C)CC(C)(C)c1ccc(OCCSC(=N)N)cc1 — what was its log10 of TGI?
0.30

# query: log10 of TGI of entry Clc1ccc(C(c2ccc(Cl)cc2)c2cncnc2)cc1
1.52

Bench note: what log10 of TGI did O=C1c2ccc3c4c(ccc(c24)C(=O)N1CCCNCc1ccccc1F)C(=O)N(CCCNCc1ccccc1F)C3=O show?
-0.68

# get_value(readout='log10 of TGI', item= C[C@]12CC[C@@H]3c4ccc(O)cc4CC[C@H]3[C@@H]1CC[C@@H]2OC(=O)CCC1CCCC1 )
1.53

---

For each entry below, report its TGI value.
- System: MDA-MB-435
- experimentNotes: NCI tumour cell line growth inhibition, 48 h
Where a SMILES comes first, the peptide text is derived from it. The star is where a group is joined. CH2Cl = ClC*
Unit µM implied. Number only.

I'd like to know its TGI. The compound in question is N#Cc1c(-c2ccccc2)n([O-])c2ccccc2[n+]1=O
36.3

Please look up its TGI: CN1CN(c2ccccc2)C2(CCN(Cc3nc4ccccc4s3)CC2)C1=O
32.3

Recorded TGI for Cc1ccc2c(NCCCN(C)C)c3c(C)nn(C)c3nc2c1 , please?
14

# TGI lookup, item Cc1ccc2c(=O)cc(-c3cccc(Cl)c3)[nH]c2n1
0.0463

Give the measured TGI of C=C1C(=O)O[C@H]2[C@H]1CC/C(COC(=O)NCc1[nH]nc3ccccc13)=C\CC[C@@]1(C)O[C@@H]21 .
4.42

Look at this compound and give its reported TGI. CC(C)OP(=O)(CCCCCCCCC/C=C/c1ccc2c(c1)OCCOCCOCCOCCO2)OC(C)C
13.6

What value of measured TGI is listed for N=C1N(c2ccccc2)C(=S)C(=Nc2ccccc2)N1c1ccccc1 ?
3.94

I would be grateful if you could share the reported TGI for C=C(C)[C@@H]1CC[C@]2(COC(C)=O)CC[C@]3(C)[C@H](CC[C@@H]4[C@@]5(C)CCCN(C(C)=O)C(C)(C)[C@@H]5CC[C@]43C)[C@@H]12 .
2.85

Dear colleague, I am looking for the recorded TGI of the following compound: NS(=O)(=O)N(c1cc(C(F)(F)F)cc(C(F)(F)F)c1)C1CCN(Cc2ccc(C(F)(F)F)cc2)CC1
13.6

Looking for the measured TGI of CC(=O)NC(CC(C)C)C(=O)NC(Cc1ccccc1)C(=O)CCl (stereo not drawn) (Ac-Leu-Phe-CH2Cl; configuration not given here) , can you help?
28

Can you share its TGI? I mean this compound: O=[N+]([O-])c1cc([N+](=O)[O-])c(N2CCCC2)cc1NN=C(c1ccc(O)cc1)c1ccc(O)cc1
14.4

Recorded TGI of COC(=O)c1c2c(c(C)[n+]([O-])c1C)C(=O)C(NCc1cccc(Cl)c1)=CC2=O , please.
1.13

Need TGI, item COc1ccc(/C=C2\CS(=O)(=O)C/C(=C\c3ccc(OC)cc3)C2=O)cc1
5.29

Record request: TGI value, item CCC(CC)COC(=O)[C@H](C)N[P@](=O)(OC[C@H]1O[C@@](C#N)(c2ccc3c(N)ncnn23)[C@H](O)[C@@H]1O)Oc1ccccc1
25.1

Request the reported TGI associated with CN1CCN(Cc2ccc(NC(=O)c3cnc(F)c(C#Cc4cnc(N)c5ncccc45)c3)cc2C(F)(F)F)CC1
6.09

Can you look up the measured TGI of O=C(O)CCc1nc2c(n1Cc1ccccc1)C(=O)c1ccccc1C2=O for me?
35.8

---

- Test system: HS 578T breast
- experimentNotes: NCI tumour cell line growth inhibition, 48 h
measureName: TGI

Recorded TGI for Nc1ccccc1C(=O)CCc1c[nH]c2ccccc12 , please?
> 100 µM

Returns the measured TGI for the input compound. Input: O=NNc1ccc(S(=O)c2ccccc2)cn1 (stereo unspecified)
> 100 µM

Item under review: CSc1nn2c(-c3ccc4ccccc4c3)ccnc2c1C#N . Reported TGI?
> 100 µM

I am curious: what TGI value has been reported for COc1cc(-c2cc(/C=C3\C(=O)Nc4ccc(Cl)cc43)[nH]n2)cc(OC)c1OC ?
> 100 µM

May I ask what TGI has been recorded for CN1C(c2ccccc2)CC(=NOCc2ccccc2)CC1c1ccccc1 (stereo unspecified) ?
> 73.3 µM

Please give the measured TGI for this compound: CCCn1c2c(c3ccccc3c1=O)C(=O)c1cc3c(cc1-2)OCO3
> 100 µM

Give the measured TGI of O=C1Nc2ccccc2S/C1=C\c1ccc(C(F)(F)F)cc1 .
> 100 µM

I would be grateful if you could share the reported TGI for CC1OC(=O)C2CC3CCCCC3C(/C=C/C3CCCC(C)N3C)C12 (stereo unspecified) .
> 100 µM

Can you share its TGI? I mean this compound: CCCCC/C=C/C(=O)CCc1ccc(O)c(OC)c1
32.8 µM

What value of measured TGI is listed for CCCCN(CCCC)CC(O)c1ccc(OCc2ccccc2)c2ccccc12 (stereo unspecified) ?
30.9 µM

GET /values?readout=TGI&item= NS(=O)(=O)c1ccc(Nc2ncc(-c3ccccc3)o2)cc1
> 25 µM

---

- Test system: HL-60(TB) leukemia
- experimentNotes: NCI tumour cell line growth inhibition, 48 h
Kindly supply the reported TGI values for the records listed here.

What value of TGI has been reported for the following compound? [N-]=[N+]=NC1=CC(=O)c2cccc3cccc1c23
> 100 µM

State the recorded TGI for this entry: CC(C)=CCc1c(O)c(CC2=C(O)C(C)=C(O)C(CC=C(C)C)(C(=O)C(C)C)C2=O)c(O)c(C(=O)C(C)C)c1O (stereo not drawn)
> 47.7 µM

Can you share its TGI? I mean this compound: Nc1ccccc1C(=O)CCc1c[nH]c2ccccc12
> 100 µM

For O=C(CC1(O)C(=O)Nc2ccc([N+](=O)[O-])cc21)c1ccc2ccccc2c1 (stereo not drawn) , what is its reported TGI?
> 100 µM

Would you kindly share the measured TGI for CCOC(=O)c1oc2c(OC)cc(Cl)c3c2c1CCC3 ?
> 100 µM

Entry under review: COC(=O)C(C(=O)C(=O)Nc1ccc(Br)cc1)c1nc2ccc(Cl)cc2[nH]c1=O (stereo not drawn) . Reported TGI?
> 100 µM

Quick check: TGI of CC12OC3(O)C4C5CC(C6C5C3C61)C42 (stereo not drawn) ?
> 100 µM

Any idea what TGI was measured for CCOC(=O)c1ccc(NC(=O)Nc2nccs2)cc1 ?
7.76 µM

Give the measured TGI of CC1(C)CC(=O)C(C(=O)C(=O)NC2=C(Cl)C(=O)c3ccccc3C2=O)C(=O)C1 .
47.2 µM

// TGI lookup, key: CCN(CC)CCn1c(N)c(-c2nc3ccccc3n2C)c2nc(C#N)c(C#N)nc21
> 50 µM

Any idea what its TGI is? The compound is O=C(O)CCC(=O)C(=O)O
> 100 µM

So what's the measured TGI for this one? O=C1C=CC(=O)N1n1c(Cc2ccccc2)n[nH]c1=O
> 100 µM

Recorded TGI of OCCCNCC(O)c1ccc(OCc2ccccc2)c(OCc2ccccc2)c1 (stereo not drawn) , please.
21.4 µM
